# TARGET: Rac GTPase-activating protein 1 (Homo sapiens) (UniProt Q9H0H5)
# Sequence (Q9H0H5 whole entry, looked up): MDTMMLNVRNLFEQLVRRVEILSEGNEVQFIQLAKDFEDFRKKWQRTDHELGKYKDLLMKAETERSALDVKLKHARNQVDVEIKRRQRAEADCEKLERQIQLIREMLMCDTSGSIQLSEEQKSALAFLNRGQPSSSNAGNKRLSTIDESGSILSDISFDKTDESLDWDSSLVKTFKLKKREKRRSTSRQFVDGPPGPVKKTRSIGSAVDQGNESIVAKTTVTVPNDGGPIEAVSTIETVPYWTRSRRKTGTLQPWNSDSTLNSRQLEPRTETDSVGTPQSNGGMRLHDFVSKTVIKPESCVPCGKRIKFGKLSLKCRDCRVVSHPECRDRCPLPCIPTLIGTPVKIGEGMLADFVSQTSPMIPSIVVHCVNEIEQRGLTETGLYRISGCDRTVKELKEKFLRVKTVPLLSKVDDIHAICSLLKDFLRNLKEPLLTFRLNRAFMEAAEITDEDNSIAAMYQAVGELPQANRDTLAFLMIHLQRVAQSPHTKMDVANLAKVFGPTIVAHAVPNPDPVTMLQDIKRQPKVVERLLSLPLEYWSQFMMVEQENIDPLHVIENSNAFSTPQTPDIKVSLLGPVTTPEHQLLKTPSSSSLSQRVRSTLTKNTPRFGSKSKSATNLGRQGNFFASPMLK
# PROTOCOL NOTES: blockers of MgcRacGAP-driven Rac1 GTP hydrolysis – biochemical, ADP Hunter fluorescence, primary and confirmatory, confirmation (AID 624330);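 also: fluorescence reports GDP produced by GAP-driven GTP hydrolysis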
# CONDITIONS USED: MgcRacGAP-stimulated Rac1 GTP hydrolysis, at 30 µM, stronger effect = higher value, GST-tagged Rac1 F28L mutant substrate
The whole screen tested about 340,000 compounds, of which about 2,100 (0.62%) were called active. Not all results are given here. Measured potencies and affinities stand elsewhere.
MEASURED ENDPOINT: inhibition

Query: Determine its reported inhibition: C=CCc1cc(Cl)ccc1OCCCn1ccnc1
Result: 19.6% (inactive)

Query: Give inhibition for the following molecule: CCN(CC)Cc1cc(C(C)=O)ccc1OCC(C)C
Result: -0.12% (inactive)

Query: Tell me its inhibition given CC(C)n1cc(/C=N/Nc2ccc(C(=O)O)cc2)c2ccccc21 as the entry.
Result: 24.1% (inactive)

Query: Retrieve inhibition measured for CC(C)(C#CC(O)(c1ccccc1)c1ccccc1)N1CCCC1 and print it.
Result: 11.3% (inactive)

Query: Quickly give me recorded inhibition for Cc1cc(C)c(C#N)c(SCc2nc3ccccc3[nH]2)n1
Result: 11.2% (inactive)

Query: Recall and state the measured inhibition for COc1ccc(C2=NS(=O)(=O)N(C)C(C(=O)N3CCCCC3C)=C2)cc1 (configuration not stated) .
Result: 2.61% (inactive)

Query: Return value of inhibition for input O=C(Cn1cnc2c(nnn2Cc2ccc(Cl)cc2)c1=O)NC1CCCC1 , no commentary.
Result: 7.49% (inactive)

Query: Using known records, supply inhibition for COc1ccc(N2CCN(C(C)C(=O)N(C)Cc3ccccc3)CC2)cc1 (configuration not stated)
Result: 11% (inactive)

Query: Using known records, supply inhibition for O=C(O)c1cc(N/N=C/c2cccc3ccccc23)ccc1Cl
Result: 11.3% (inactive)

Query: Supply reported inhibition belonging to this molecule: N#Cc1ccc(OCc2nnc(SCC(=O)N3CCCc4ccccc43)n2-c2ccccc2)cc1
Result: 3.45% (inactive)

Query: State its inhibition: Cc1ccc2c(Cl)c(C(=O)Nc3cc(C)on3)sc2c1
Result: 4.78% (inactive)

Query: Name the recorded inhibition of the item COc1ccc(CN2CCN(C(=O)c3cccc4ccccc34)CC2)cc1OC in your answer.
Result: 30.3% (inactive)

Query: # return recorded inhibition for input CCCOc1ccc(N)cc1N
Result: 18.7% (inactive)

Query: Check the records and state inhibition for COc1nonc1NC(=O)CSc1nc2ccccc2[nH]1
Result: 9.74% (inactive)

Query: Note inhibition for the molecule shown: O=C(O)c1ccccc1C(=O)N(Cc1ccccc1)Cc1ccccc1
Result: 4% (inactive)

Query: Look up and state reported inhibition for C=CCNCC(=O)N1N=C(c2ccc3ccccc3c2)CC1c1ccc(OC)cc1 (configuration not stated)
Result: 6.55% (inactive)

Query: Input COc1ccc(-c2nc3c(Br)c(N)c(Br)cc3o2)cc1 , output reported inhibition.
Result: -0.217% (inactive)

Query: Give reported inhibition value for Cn1c(=O)[nH]c2c(cnn2C)c1=O
Result: -2.19% (inactive)

Query: Please give the documented inhibition of O=C(Nc1ccc(Cl)cc1)C1CCN(C(=O)c2cccs2)CC1
Result: 6.08% (inactive)

Query: Could you please provide reported inhibition for COCC(=O)N(Cc1cc2cc(C)ccc2[nH]c1=O)c1ccc(C)c(C)c1 ? Thanks!
Result: 16.2% (inactive)

Query: Find the measured inhibition of CN(CCCC1CCCC1)C(=O)c1cc(COc2c(F)cccc2F)on1 and report it.
Result: 7.43% (inactive)

Query: State its inhibition for this molecule: CCCn1c(N)c(Br)c(=O)[nH]c1=O
Result: 12.3% (inactive)

Query: Please list inhibition recorded for the molecule C=CCc1cc(C)ccc1OCCn1ccnc1
Result: 17.7% (inactive)

Query: Supply inhibition value. Item: COc1ccc(CN2CCOCC2)cc1OC
Result: 11.6% (inactive)

Query: Give the reported value of inhibition for this record: COc1ccc(C2CC(c3ccc4ccccc4c3)=NN2C(=O)CSc2ncccn2)cc1 (configuration not stated)
Result: 7.23% (inactive)

Query: Please supply the value of reported inhibition for the item COc1cc(OC)cc(C(=O)N2CCN(Cc3cccc(F)c3)CC2)c1
Result: 27.4% (inactive)

Query: Assign inhibition to the following record: N#CCCn1cc(CNC2CCC(O)CC2)c2ccccc21 (configuration not stated)
Result: 3.99% (inactive)

Query: For the molecule CC1(C)CC(=O)C2=C(C1)C(c1cn(-c3ccccc3)nc1-c1ccccc1)C(C#N)=C(N)O2 (configuration not stated) , give its reported inhibition.
Result: 2.04% (inactive)

Query: Quick one: give measured inhibition for CCOc1ccc(N(C(C)C(=O)Nc2ccc(OC)cc2)S(C)(=O)=O)cc1 (configuration not stated)
Result: 9.57% (inactive)

Query: Specify reported inhibition for the molecule shown: CCCSc1nnc2c(n1)OC(c1cccn1C)N(C(C)=O)c1ccccc1-2 (configuration not stated)
Result: 7.61% (inactive)

Query: For the molecule CC(=O)N1CCc2cc(S(=O)(=O)NCCCOC(C)C)ccc21 , give its reported inhibition.
Result: 2.11% (inactive)

Query: Quickly give me recorded inhibition for COc1cc(OC)c(OC)cc1/C=N/Nc1nc2ccccc2[nH]1
Result: 12.8% (inactive)

Query: Determine from records and report inhibition for COc1cc(/C=N/Nc2nc3ccccc3[nH]c2=O)ccc1O
Result: 15.8% (inactive)

Query: Indicate its recorded inhibition; the molecule in question is COc1ccc2ccccc2c1/C=N/Nc1ccc(Cl)c(C(=O)O)c1
Result: 17.1% (inactive)

Query: Read off the recorded inhibition for O=C(NNC(=O)c1n[nH]c2ccccc12)c1ccccc1
Result: 4.79% (inactive)

Query: Return inhibition for the following molecule: CSc1nc2c([nH]1)c(=S)n(C)c(=O)n2C
Result: 8.34% (inactive)

Query: Provide measured inhibition value, entry: CCOc1ccc(C(=O)O)cc1OC
Result: 5.02% (inactive)

Query: Kindly indicate its recorded inhibition. Item: C=CCc1cc(Cl)ccc1OCCNCCOC
Result: 10.8% (inactive)

Query: Given C=CCc1cc(C)ccc1OCCOCCn1ccnc1 , respond with its inhibition.
Result: 15.9% (inactive)

Query: Please indicate inhibition recorded for COc1cc(/C=N/NC(=O)c2cc(-c3cccc(Br)c3)nc3ccccc23)cc(OC)c1O
Result: 13.9% (inactive)

Query: Entry COc1cccc(OC)c1C(=O)N1CCN(c2ccccn2)CC1 needs its inhibition filled in; supply it.
Result: 6.84% (inactive)

Query: Please look at this molecule and report its inhibition: C/C(=N\NC(=O)c1c(Cl)cnn1C)c1cccc(NC(=O)c2ccc(C)cc2)c1
Result: 2.57% (inactive)

Query: Check the records and state inhibition for COc1ccc(CN2CCN(C)CC2)cc1OCc1ccccc1
Result: 8.63% (inactive)

Query: Recall and state the measured inhibition for CC12CCC(=O)N1C(C(=O)OCC(=O)Nc1ccc(S(N)(=O)=O)cc1)CS2 (configuration not stated) .
Result: 0.82% (inactive)

Query: Identify measured inhibition associated with COCCN1C(=O)N(c2ccccc2)C(=O)C1CC(=O)Nc1cc(OC)cc(OC)c1 (configuration not stated)
Result: -13.2% (inactive)

Query: Identify the reported inhibition for the following entry. Cc1ccc(F)cc1NC(=O)CN1CCN(Cc2ccccc2)CC1
Result: -0.43% (inactive)

Query: Tell me its inhibition given Cc1nn(CCCC(=O)Nc2cnn(Cc3ccc(F)cc3)c2)c(C)c1[N+](=O)[O-] as the entry.
Result: -3.65% (inactive)
